- Tested on: BDF1 mice, P388 leukemia ip, median survival T/C
- procedure_text: NCI In Vivo Anticancer Drug Screen. Data for tumor model P388 Leukemia (intraperitoneal) in B6D2F1 (BDF1) mice
- assay_conditions: endpoint: median survival time; dose: 200.0 mg/kg/injection; schedule: Q04DX003 (ip); vehicle: Klucel (hydroxypropylcellulose) (HPC); higher = longer survival
Toxic doses and inconclusive results are not listed.
Measured T/C of individual entries

Recorded results for 6 compounds are shown here.
NC(N)=NCCCC(NC(=O)OCc1ccccc1)C(=O)O (configuration not stated)	104 % of control
O=C(O)Cc1ccc(N=Nc2c(O)c(C(=O)O)cc3ccccc23)cc1	111 % of control
O=C(O)c1cc(-c2ccc(Cl)cc2)nc2c(Cl)cccc12	86 % of control
Cc1ccc(NS(=O)(=O)c2ccc(F)cc2)cc1Cl	100 % of control
CN(C)c1ccc(C=O)cc1Br	100 % of control
CC1SC(c2ccccc2)N(c2ccccc2)C1=O (configuration not stated)	104 % of control

Observed T/C on BDF1 mice, P388 leukemia ip, median survival T/C for CCOc1ccc2nc(/C=C\c3cc4c5c(c3)CCCN5CCC4)ccc2c1 , please.
100 % of control

Try this compound next: COC(=O)c1ccc(-c2ccccc2)cc1
101 % of control

Now this one: S=C(NNc1ccccc1)NC1CCCCC1
105 % of control

Also check CC(=O)n1ccnc1/C=C\c1ccc([N+](=O)[O-])s1
105 % of control

O=C(OC1COC(Br)C(OC(=O)c2ccccc2)C1OC(=O)c1ccccc1)c1ccccc1 (configuration not stated) , same question.
95 % of control

How about CCCCCCCCCCC(=O)OCC#CC#CCOC(=O)CCCCCCCCCC ?
104 % of control
